Exercise: for every item that follows, state its recorded ΔTm at 10 µM.
biological target: PAK4A (Homo sapiens); construct: purchased in-house DSF kinase panel (SGC-style construct names; the trailing letter is the construct ID); assay: DSF Tm panel; assay type: binding; conditions: 10 μM compound
Sequence (O96013 291-591): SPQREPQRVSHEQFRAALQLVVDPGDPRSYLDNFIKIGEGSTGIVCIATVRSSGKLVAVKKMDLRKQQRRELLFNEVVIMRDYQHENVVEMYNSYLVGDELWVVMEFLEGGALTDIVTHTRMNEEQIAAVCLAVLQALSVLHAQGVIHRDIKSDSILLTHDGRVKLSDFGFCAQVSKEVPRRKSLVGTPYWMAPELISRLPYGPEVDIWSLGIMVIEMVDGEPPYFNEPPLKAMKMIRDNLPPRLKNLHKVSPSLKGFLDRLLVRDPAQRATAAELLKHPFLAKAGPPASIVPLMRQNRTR
Numbers only, in °C.

Q: # query: ΔTm at 10 µM | item "COc1ccc(CNC(=O)Nc2ccc3cc2OCCOCCNc2ccn4ncc-3c4n2)cc1" | system: PAK4A (Homo sapiens)
A: 1.7

Q: # query: ΔTm at 10 µM | item "O=C(NCc1ccccc1C(F)(F)F)Nc1ccc2cc1OCCOCCNc1ccn3ncc-2c3n1" | system: PAK4A (Homo sapiens)
A: 2.1

Q: # query: ΔTm at 10 µM | item "O=C(NCc1cccc(Cl)c1)Nc1ccc2cc1OCCOCCNc1ccn3ncc-2c3n1" | system: PAK4A (Homo sapiens)
A: 0.1

Q: # query: ΔTm at 10 µM | item "Cc1cc(Cl)ccc1CNC(=O)Nc1ccc2cc1OCCOCCNc1ccn3ncc-2c3n1" | system: PAK4A (Homo sapiens)
A: 1.2

Q: # query: ΔTm at 10 µM | item "O=C(NCc1ccccc1Cl)Nc1ccc2cc1OCCOCCNc1ccn3ncc-2c3n1" | system: PAK4A (Homo sapiens)
A: 0

Q: # query: ΔTm at 10 µM | item "O=C(NCc1ccc(C(F)(F)F)cc1)Nc1ccc2cc1OCCOCCNc1ccn3ncc-2c3n1" | system: PAK4A (Homo sapiens)
A: 2.4

Q: # query: ΔTm at 10 µM | item "O=C(NCc1ccc(Cl)cc1Cl)Nc1ccc2cc1OCCOCCNc1ccn3ncc-2c3n1" | system: PAK4A (Homo sapiens)
A: 0.8

Now, please, on to the next compound.
Q: # query: ΔTm at 10 µM | item "CN1CCN(C(=O)Nc2ccc3cc2OCCOCCNc2ccn4ncc-3c4n2)CC1" | system: PAK4A (Homo sapiens)
A: -0.3
